- Tested on: NCI-H358
- assay: relative viability (nuclei count vs DMSO), 5 days (fraction); higher = more cells survive
- condition.notes: first compound 0.03162 µM

[
  {
    "compound": "CC(C)Oc1cc(Nc2nc(N[C@@H](C)c3ccc(F)cn3)ncc2Cl)n[nH]1 [AZ23] + Cc1nc(NC(=O)N2CCC[C@H]2C(N)=O)sc1-c1ccnc(C(C)(C)C(F)(F)F)c1 [Alpelisib] (partner 2 µM)",
    "target.desc": "NCI-H358",
    "relative viability": 0.855
  },
  {
    "compound": "CC(C)Oc1cc(Nc2nc(N[C@@H](C)c3ccc(F)cn3)ncc2Cl)n[nH]1 [AZ23] + Cc1cc(Nc2cc(N3CCN(C)CC3)nc(Sc3ccc(NC(=O)C4CC4)cc3)n2)n[nH]1 [Tozasertib] (partner 0.1 µM)",
    "target.desc": "NCI-H358",
    "relative viability": 0.114
  },
  {
    "compound": "CC(C)Oc1cc(Nc2nc(N[C@@H](C)c3ccc(F)cn3)ncc2Cl)n[nH]1 [AZ23] + O=C(CCCCCCC(=O)Nc1ccccc1)NO [Vorinostat] (partner 1 µM)",
    "target.desc": "NCI-H358",
    "relative viability": 0.718
  },
  {
    "compound": "CC(C)Oc1cc(Nc2nc(N[C@@H](C)c3ccc(F)cn3)ncc2Cl)n[nH]1 [AZ23] + C[C@@H](Oc1cc(-c2cnn(C3CCNCC3)c2)cnc1N)c1c(Cl)ccc(F)c1Cl [Crizotinib] (partner 1 µM)",
    "target.desc": "NCI-H358",
    "relative viability": 0.781
  },
  {
    "compound": "CC(C)Oc1cc(Nc2nc(N[C@@H](C)c3ccc(F)cn3)ncc2Cl)n[nH]1 [AZ23] + O=C(c1cc(Cc2n[nH]c(=O)c3ccccc23)ccc1F)N1CCN(C(=O)C2CC2)CC1 [Olaparib] (partner 8 µM)",
    "target.desc": "NCI-H358",
    "relative viability": 0.667
  },
  {
    "compound": "CC(C)Oc1cc(Nc2nc(N[C@@H](C)c3ccc(F)cn3)ncc2Cl)n[nH]1 [AZ23] + CC(=O)Nc1cccc(-n2c(=O)n(C3CC3)c(=O)c3c(Nc4ccc(I)cc4F)n(C)c(=O)c(C)c32)c1 [Trametinib] (partner 0.02 µM)",
    "target.desc": "NCI-H358",
    "relative viability": 0.137
  },
  {
    "compound": "CC(C)Oc1cc(Nc2nc(N[C@@H](C)c3ccc(F)cn3)ncc2Cl)n[nH]1 [AZ23] + C[C@]1(O)C[C@@H](c2nc(-c3ccc4ccc(-c5ccccc5)nc4c3)c3c(N)nccn32)C1 [Linsitinib] (partner 1 µM)",
    "target.desc": "NCI-H358",
    "relative viability": 0.771
  }
]

----------
Measured relative viability, listed per entry.
- System: RERF-LC-KJ
- assay: relative viability (nuclei count vs DMSO), 5 days (fraction); higher = more cells survive
- condition.notes: first compound 0.4 µM

[
  {
    "compound": "C[C@@H]1CN(CC(=O)Nc2ccc3c(c2)Cc2cccc(-c4cc(=O)cc(N5CCOCC5)o4)c2S3)C[C@H](C)O1 + C[C@]1(O)C[C@@H](c2nc(-c3ccc4ccc(-c5ccccc5)nc4c3)c3c(N)nccn32)C1 [Linsitinib] (partner 1 µM)",
    "target.desc": "RERF-LC-KJ",
    "relative viability": 0.91
  },
  {
    "compound": "Clc1ccc(Nc2nnc(Cc3ccncc3)c3ccccc23)cc1 [Vatalanib] + Cc1cc(Nc2cc(N3CCN(C)CC3)nc(Sc3ccc(NC(=O)C4CC4)cc3)n2)n[nH]1 [Tozasertib] (partner 0.1 µM)",
    "target.desc": "RERF-LC-KJ",
    "relative viability": 0.511
  },
  {
    "compound": "Clc1ccc(Nc2nnc(Cc3ccncc3)c3ccccc23)cc1 [Vatalanib] + CC(=O)Nc1cccc(-n2c(=O)n(C3CC3)c(=O)c3c(Nc4ccc(I)cc4F)n(C)c(=O)c(C)c32)c1 [Trametinib] (partner 0.02 µM)",
    "target.desc": "RERF-LC-KJ",
    "relative viability": 0.903
  },
  {
    "compound": "C[C@@H]1CN(CC(=O)Nc2ccc3c(c2)Cc2cccc(-c4cc(=O)cc(N5CCOCC5)o4)c2S3)C[C@H](C)O1 + Cc1nc(NC(=O)N2CCC[C@H]2C(N)=O)sc1-c1ccnc(C(C)(C)C(F)(F)F)c1 [Alpelisib] (partner 2 µM)",
    "target.desc": "RERF-LC-KJ",
    "relative viability": 0.774
  }
]

----------
- Test system: PC-14
- assay: relative viability (nuclei count vs DMSO), 5 days (fraction); higher = more cells survive
- condition.notes: first compound 4 µM

[
  {
    "compound": "Clc1ccc(Nc2nnc(Cc3ccncc3)c3ccccc23)cc1 [Vatalanib] + O=C(CCCCCCC(=O)Nc1ccccc1)NO [Vorinostat] (partner 1 µM)",
    "target.desc": "PC-14",
    "relative viability": 0.62
  },
  {
    "compound": "Clc1ccc(Nc2nnc(Cc3ccncc3)c3ccccc23)cc1 [Vatalanib] + Nc1ncn([C@H]2C[C@H](O)[C@@H](CO)O2)c(=O)n1 [Decitabine] (partner 2 µM)",
    "target.desc": "PC-14",
    "relative viability": 0.253
  },
  {
    "compound": "Clc1ccc(Nc2nnc(Cc3ccncc3)c3ccccc23)cc1 [Vatalanib] + N=C(N)NC(=N)NCCc1ccccc1 [Phenformin] (partner 250 µM)",
    "target.desc": "PC-14",
    "relative viability": 0.541
  },
  {
    "compound": "C[C@@H]1CN(CC(=O)Nc2ccc3c(c2)Cc2cccc(-c4cc(=O)cc(N5CCOCC5)o4)c2S3)C[C@H](C)O1 + CC(=O)c1c(C)c2cnc(Nc3ccc(N4CCNCC4)cn3)nc2n(C2CCCC2)c1=O [Palbociclib] (partner 0.5 µM)",
    "target.desc": "PC-14",
    "relative viability": 0.423
  },
  {
    "compound": "Clc1ccc(Nc2nnc(Cc3ccncc3)c3ccccc23)cc1 [Vatalanib] + NC(=O)Nc1cc(-c2cccc(F)c2)sc1C(=O)N[C@H]1CCCNC1 [AZD7762] (partner 0.2 µM)",
    "target.desc": "PC-14",
    "relative viability": 0.318
  }
]

----------
- Tested on: NCI-H1755
- assay: relative viability (nuclei count vs DMSO), 5 days (fraction); higher = more cells survive
- condition.notes: first compound 0.01 µM
Measured relative viability, listed per entry.

[
  {
    "compound": "CC(C)Oc1cc(Nc2nc(N[C@@H](C)c3ccc(F)cn3)ncc2Cl)n[nH]1 [AZ23] + Cc1nc(NC(=O)N2CCC[C@H]2C(N)=O)sc1-c1ccnc(C(C)(C)C(F)(F)F)c1 [Alpelisib] (partner 2 µM)",
    "target.desc": "NCI-H1755",
    "relative viability": 1.12
  },
  {
    "compound": "CC(C)Oc1cc(Nc2nc(N[C@@H](C)c3ccc(F)cn3)ncc2Cl)n[nH]1 [AZ23] + CS(=O)(=O)N1CCN(Cc2cc3nc(-c4cccc5[nH]ncc45)nc(N4CCOCC4)c3s2)CC1 [Pictilisib] (partner 1 µM)",
    "target.desc": "NCI-H1755",
    "relative viability": 0.41
  }
]

----------
- Tested on: HARA
- assay: relative viability (nuclei count vs DMSO), 5 days (fraction); higher = more cells survive
- condition.notes: first compound 4 µM
measurement.type: relative viability

[
  {
    "compound": "C[C@@H]1CN(CC(=O)Nc2ccc3c(c2)Cc2cccc(-c4cc(=O)cc(N5CCOCC5)o4)c2S3)C[C@H](C)O1 + CC(=O)Nc1cccc(-n2c(=O)n(C3CC3)c(=O)c3c(Nc4ccc(I)cc4F)n(C)c(=O)c(C)c32)c1 [Trametinib] (partner 0.02 µM)",
    "meas.value": 0.406
  },
  {
    "compound": "C[C@@H]1CN(CC(=O)Nc2ccc3c(c2)Cc2cccc(-c4cc(=O)cc(N5CCOCC5)o4)c2S3)C[C@H](C)O1 + CC1(C)CCC(c2ccc(Cl)cc2)=C(CN2CCN(c3ccc(C(=O)NS(=O)(=O)c4ccc(N[C@H](CCN5CCOCC5)CSc5ccccc5)c(S(=O)(=O)C(F)(F)F)c4)cc3)CC2)C1 [Navitoclax] (partner 0.5 µM)",
    "meas.value": 1.14
  },
  {
    "compound": "COc1cc(N2CCC(C(N)=O)CC2)ccc1Nc1nc(N)c(Cl)c(Nc2ccccc2S(=O)(=O)C(C)C)n1 [HG-5-88-01] + NC(=O)Nc1cc(-c2cccc(F)c2)sc1C(=O)N[C@H]1CCCNC1 [AZD7762] (partner 0.2 µM)",
    "meas.value": 0.322
  },
  {
    "compound": "C[C@@H]1CN(CC(=O)Nc2ccc3c(c2)Cc2cccc(-c4cc(=O)cc(N5CCOCC5)o4)c2S3)C[C@H](C)O1 + Cc1cc(Nc2cc(N3CCN(C)CC3)nc(Sc3ccc(NC(=O)C4CC4)cc3)n2)n[nH]1 [Tozasertib] (partner 0.1 µM)",
    "meas.value": 0.104
  },
  {
    "compound": "COc1cc(N2CCC(C(N)=O)CC2)ccc1Nc1nc(N)c(Cl)c(Nc2ccccc2S(=O)(=O)C(C)C)n1 [HG-5-88-01] + C[C@]1(O)C[C@@H](c2nc(-c3ccc4ccc(-c5ccccc5)nc4c3)c3c(N)nccn32)C1 [Linsitinib] (partner 1 µM)",
    "meas.value": 0.92
  }
]
